Assay: inhibitors of TWEAK-Fn14 signaling, primary screen, luciferase reporter cells, uHTS (AID 1159606)
Settings: TWEAK-stimulated Fn14 reporter cells, luciferase luminescence, 8 h; at 10 µM
Screen size: about 360,000 compounds; about 7,300 (2%) were called active. Cut-off read from the data, not from the text of the source: active = inhibition above about 50%; inactive = the rest. Only a selection was taken, and actives are over-represented in it overall.
Use one of these outcomes when replying: YES (active), NO (inactive)

Example cases with answers are listed next.
1) O=C(CCCl)Nc1ccc(S(=O)(=O)NCc2ccco2)cc1 | NO
2) CC(C)(C)C1C/C(=C/c2ccco2)C(=O)/C(=C/c2ccco2)C1 (stereo not given) | NO
3) CC(C)C[C@@H](N)c1nnc(SCC(=O)c2ccc(Cl)cc2)o1 | YES
4) CCNC(=S)Nc1ccc2c(c1)c(=O)n(C)n2Cc1ccc(Cl)cc1 | NO
5) CCCn1c(N)c(C(=O)CSc2nc3ccccc3c(=O)n2-c2ccc(OC)cc2)c(=O)[nH]c1=O | NO
6) CC(=O)Oc1ccc(Cn2c(C)c(C(=O)NCc3ccc(C#N)cc3)sc2=O)cc1 | NO
7) Cc1cc(C)cc(C(=O)OCC(=O)NCCNC(=O)COC(=O)c2cc(C)cc(C)c2)c1 | NO
8) CCCCn1c(N)c(N(CCOC)C(=O)CSCC(=O)Nc2cccc(C)c2)c(=O)[nH]c1=O | NO

**Q:** Assay result, entry Cc1ccc(C(=O)/C=C/Nc2ccc(S(=O)(=O)Nc3onc(C)c3C)cc2)cc1 — outcome?
**A:** NO

**Q:** Returns: the outcome recorded for Cc1ccc(NC(=O)Cc2nc(COC(=O)C(C)NS(=O)(=O)c3ccc(C)cc3)cs2)cc1 (stereo not given) in this assay.
**A:** NO

**Q:** Dear all, I need the recorded test outcome for O=C(NCc1ccc(F)cc1)c1cc(C2CCCCN2C(=O)C2CCCCC2)on1 (stereo not given) , thank you.
**A:** NO

**Q:** Record lookup: outcome of this test for O=C(c1c(Cl)cccc1Cl)N1CCN(c2cccc3[nH]ccc23)CC1 ?
**A:** NO

**Q:** Dear all, I need the recorded test outcome for CC(C)C[C@@H]1Cc2[nH][nH]c(=O)c2[C@H](CCc2ccccc2)O1 , thank you.
**A:** NO

**Q:** Please share the test call associated with COC(=O)[C@]12CCCCC=C1N(Cc1cccc3ccccc13)C(=O)[C@H](CC(=O)N1CCOCC1)C2 .
**A:** NO

**Q:** Field: outcome | Entry: Cc1c(NC(=O)C(C)OC(=O)c2ccccc2O)c(=O)n(-c2ccccc2)n1C (stereo not given)
**A:** NO
